TEST_NAME: Plasma pharmacokinetics and brain uptake of antrafenine in mice (LC-MS)
Assay type: in vivo, male C57BL/6 mice
TEST_PARAMETERS: male, C57BL/6, mouse, brain, iv, 3 mg/kg, IV 3 mg/kg, 0.25 h, individual mice; read-out: B:P ratio Individual
RECORDED_ENDPOINT: Kp at 0.25 h

# COMPOUND, ENDPOINT_RESULT
measured = [
    ("O=C(OCCN1CCN(c2cccc(C(F)(F)F)c2)CC1)c1ccccc1Nc1ccnc2cc(C(F)(F)F)ccc12 [antrafenine]", 0.042),
]

###

TEST_NAME: Plasma pharmacokinetics and brain uptake of antrafenine in mice (LC-MS)
Type: in vivo, male C57BL/6 mice
TEST_PARAMETERS: male, C57BL/6, mouse, plasma, iv, 3 mg/kg, plasma, IV at 1 and 3 mg/kg, each profile; read-out: apparent terminal half-life (converted)
RECORDED_ENDPOINT: half-life

# SMILES_REPR, RECORDED_ENDPOINT, ENDPOINT_RESULT
records = [
    ("O=C(OCCN1CCN(c2cccc(C(F)(F)F)c2)CC1)c1ccccc1Nc1ccnc2cc(C(F)(F)F)ccc12", "half-life", "~7 h"),
]

###

TEST_NAME: Plasma pharmacokinetics and brain uptake of antrafenine in mice (LC-MS)
Type: in vivo, male C57BL/6 mice
TEST_PARAMETERS: male, C57BL/6, mouse, brain, iv, 1 mg/kg, IV 1 mg/kg, 0.25 h, n = 3; read-out: B:P ratio Mean ± SD

# SMILES_REPR, Kp at 0.25 h
data = [
    ("O=C(OCCN1CCN(c2cccc(C(F)(F)F)c2)CC1)c1ccccc1Nc1ccnc2cc(C(F)(F)F)ccc12", 0.05),
]

###

TEST_NAME: Plasma pharmacokinetics and brain uptake of antrafenine in mice (LC-MS)
Format: in vivo, male C57BL/6 mice
TEST_PARAMETERS: male, C57BL/6, mouse, plasma, iv, 3 mg/kg, IV 3 mg/kg, 24 h, individual mice; read-out: Plasma Concentration Individual

# COMPOUND, concentration at 24 h
rows = [
    ("O=C(OCCN1CCN(c2cccc(C(F)(F)F)c2)CC1)c1ccccc1Nc1ccnc2cc(C(F)(F)F)ccc12 [antrafenine]", "5.7 nM"),
]

###

ASSAYED_SYSTEM: R928C mutant KCNT1 channels (Homo sapiens, UniProt Q5JUK3, R909C)
Construct: YFP-6His
Sequence (Q5JUK3 1-1235 isoform Q5JUK3-3 R928C): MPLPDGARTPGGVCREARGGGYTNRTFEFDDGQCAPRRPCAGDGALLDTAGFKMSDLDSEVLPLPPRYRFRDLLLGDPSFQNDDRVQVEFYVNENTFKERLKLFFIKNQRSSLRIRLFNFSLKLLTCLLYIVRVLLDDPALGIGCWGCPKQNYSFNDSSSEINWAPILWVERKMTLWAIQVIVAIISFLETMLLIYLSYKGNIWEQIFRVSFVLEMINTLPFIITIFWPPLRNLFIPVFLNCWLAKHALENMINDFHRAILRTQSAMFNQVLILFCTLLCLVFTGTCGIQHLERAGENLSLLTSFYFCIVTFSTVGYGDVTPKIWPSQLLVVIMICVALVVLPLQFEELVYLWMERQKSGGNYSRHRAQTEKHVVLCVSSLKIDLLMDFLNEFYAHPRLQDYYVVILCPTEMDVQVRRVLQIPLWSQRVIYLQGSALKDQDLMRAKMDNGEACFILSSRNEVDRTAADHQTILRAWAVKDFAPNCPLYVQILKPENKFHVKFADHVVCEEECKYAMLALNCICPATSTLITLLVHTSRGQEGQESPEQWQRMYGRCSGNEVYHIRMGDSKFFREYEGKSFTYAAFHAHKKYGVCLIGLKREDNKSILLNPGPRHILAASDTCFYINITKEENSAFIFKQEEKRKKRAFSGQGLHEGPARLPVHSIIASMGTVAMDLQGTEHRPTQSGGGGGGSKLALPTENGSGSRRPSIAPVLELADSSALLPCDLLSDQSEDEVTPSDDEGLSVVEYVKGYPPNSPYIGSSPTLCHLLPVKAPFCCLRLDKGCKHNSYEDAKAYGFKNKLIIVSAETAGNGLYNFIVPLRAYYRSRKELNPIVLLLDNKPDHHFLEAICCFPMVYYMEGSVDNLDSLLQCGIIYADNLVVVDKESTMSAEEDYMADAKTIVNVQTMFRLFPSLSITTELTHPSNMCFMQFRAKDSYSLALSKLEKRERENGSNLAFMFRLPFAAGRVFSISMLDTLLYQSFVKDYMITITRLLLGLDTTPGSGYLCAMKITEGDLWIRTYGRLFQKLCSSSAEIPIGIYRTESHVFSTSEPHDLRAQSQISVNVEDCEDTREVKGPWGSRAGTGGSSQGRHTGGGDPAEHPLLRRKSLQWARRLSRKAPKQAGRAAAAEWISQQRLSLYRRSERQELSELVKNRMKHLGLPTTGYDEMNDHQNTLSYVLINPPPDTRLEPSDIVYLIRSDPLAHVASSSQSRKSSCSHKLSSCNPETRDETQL
TEST_NAME: Inside-out patch clamp of HEK293T cells expressing R928C KCNT1
TEST_PARAMETERS: inside-out patches, mean ± SEM
Where a name gives a salt, the structure may show the parent alone.
Reported values of IC50 for individual entries

# COMPOUND, IC50
measured = [
    ("O=C(OCCN1CCN(c2cccc(C(F)(F)F)c2)CC1)c1ccccc1Nc1ccnc2cc(C(F)(F)F)ccc12", "12.3 nM"),
    ("CC(C)c1c(C(=O)Nc2ccccc2)c(-c2ccccc2)c(-c2ccc(F)cc2)n1CC[C@@H](O)C[C@@H](O)CC(=O)O", "1200 nM"),
    ("Cc1c(O)cccc1C(=O)N[C@@H](CSc1ccccc1)[C@H](O)CN1C[C@H]2CCCC[C@H]2C[C@H]1C(=O)NC(C)(C)C [nelfinavir mesylate]", "8 nM"),
]
